Ref: patent US11209437B2

- RUN DESCRIPTION: Viscosity responsiveness: fluorescence emission spectra of probes in glycerol and methanol
- Type: physicochemical
- PROTOCOL CONDITIONS: probe 1×10^−5 M
MEASURED ENDPOINT: Fluorescence ratio in glycerol to methanol

Recorded Fluorescence ratio in glycerol to methanol, per entry:
CN(CCOC(=O)NCc1ccc(COc2nc(N)nc3[nH]cnc23)cc1)c1cc2sc3cc(/C=C(\C#N)c4nc5ccccc5s4)sc3c2s1 ... 711
COCCNC(=O)/C(C#N)=C/c1ccc(-c2ccc(N(C)CCOC(=O)NCc3ccc(COc4nc(N)nc5[nH]cnc45)cc3)s2)s1 ... 189
CN(CCOC(=O)NCc1ccc(COc2nc(N)nc3[nH]cnc23)cc1)c1cc2sc(/C=C(\C#N)c3nc4ccccc4o3)cc2s1 ... 1821
CN(CCOC(=O)NCc1ccc(COc2nc(N)nc3[nH]cnc23)cc1)c1cc2sc3cc(/C=C(\C#N)c4nc5ccccc5o4)sc3c2s1 ... 817

a. CC(C)(C)OC(=O)/C(C#N)=C/c1ccc(N(CCO)CCOC(=O)NCc2ccc(COc3nc(N)nc4[nH]cnc34)cc2)cc1
b. CN(CCOC(=O)NCc1ccc(COc2nc(N)nc3[nH]cnc23)cc1)c1ccc(-c2ccc(/C=C(\C#N)C(=O)OC(C)(C)C)s2)cc1
Given the listed records, identify the one among a and b with higher Fluorescence ratio in glycerol to methanol. Please reply using the label of the selected record.
a
(a: 655, b: 386)
